Molecular target: recombinant Amaranthus tuberculatus PPO2 wild-type enzyme (Amaranthus tuberculatus)
Assay: biochemical
Conditions: read-out: Wild type sensitivity [IC50]
measurement.name: IC50 (nM)
Give just the numeric value; nM need not be written.

IC50 in this record for `C#CCN(C)c1c(C#N)cnn1-c1nn2c(c1Cl)CCCC2` : 1.39

###

Biological target: recombinant Amaranthus tuberculatus PPO2 wild-type enzyme (Amaranthus tuberculatus, UniProt Q0NZW9)
Sequence (Q0NZW9 1-534): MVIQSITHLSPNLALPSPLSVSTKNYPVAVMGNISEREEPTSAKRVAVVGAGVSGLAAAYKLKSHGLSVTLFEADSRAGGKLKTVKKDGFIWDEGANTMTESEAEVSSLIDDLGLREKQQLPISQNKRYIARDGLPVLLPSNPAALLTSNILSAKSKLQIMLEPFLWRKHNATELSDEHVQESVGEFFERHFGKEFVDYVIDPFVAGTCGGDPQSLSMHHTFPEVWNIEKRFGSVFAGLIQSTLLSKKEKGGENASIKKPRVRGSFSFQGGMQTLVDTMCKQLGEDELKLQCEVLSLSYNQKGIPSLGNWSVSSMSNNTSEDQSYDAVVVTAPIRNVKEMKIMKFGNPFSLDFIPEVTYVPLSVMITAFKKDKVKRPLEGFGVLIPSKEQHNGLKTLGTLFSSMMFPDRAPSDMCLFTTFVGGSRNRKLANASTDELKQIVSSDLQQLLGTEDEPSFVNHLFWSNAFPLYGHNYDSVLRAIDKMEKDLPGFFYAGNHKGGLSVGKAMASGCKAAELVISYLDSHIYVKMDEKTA
Assay: biochemical
What pIC50 was measured for each of the following?
// pIC50 here means minus log10 of the molar concentration (mol/L)

Short answer for `CS(=O)(=O)NC(=O)c1cc(Oc2ccc(C(F)(F)F)cc2Cl)ccc1[N+](=O)[O-]` : pIC50 was 8.88

So, CCOC(=O)C(C)OC(=O)c1cc(Oc2ccc(C(F)(F)F)cc2Cl)ccc1[N+](=O)[O-] (centres unmarked) ? Its pIC50 was 10.25

Looking up `C#CCN1C(=O)COc2cc(F)c(N3C(=O)C4=C(CCCC4)C3=O)cc21` , I found its pIC50 recorded as 10.41

Briefly, pIC50 measured for `Cc1nn(-c2cc(NS(C)(=O)=O)c(Cl)cc2Cl)c(=O)n1C(F)F` : 7.76

Reported pIC50 for `CC(C)Oc1cc(-n2nc(C(C)(C)C)oc2=O)c(Cl)cc1Cl` was 9.15

Record `CCOc1cc(Oc2ccc(C(F)(F)F)cc2Cl)ccc1[N+](=O)[O-]` , field pIC50: 10.47

Recorded pIC50 (compound `O=C(O)c1cc(Oc2ccc(C(F)(F)F)cc2Cl)ccc1[N+](=O)[O-]` ): 7.73

// sample `CCOC(=O)COc1cc(-c2nn(C)c(OC(F)F)c2Cl)c(F)cc1Cl` , its pIC50 was 10.28

pIC50 measured on Cc1nn(-c2cc(CC(Cl)C(=O)O)c(Cl)cc2F)c(=O)n1C(F)F (centres unmarked) = 9.71

get_value(item= `COC(=O)CSc1cc(/N=c2\sc(=O)n3n2CCCC3)c(F)cc1Cl` , readout=pIC50) returns 9.17

# compound `C=CCOC(=O)C(C)(C)OC(=O)c1cc(-n2c(=O)cc(C(F)(F)F)n(C)c2=O)ccc1Cl` ; its pIC50 = 11.05

# credit: paper PMC6530635
